Each entry below carries its reported GI50 at 72 h.
# Experiment summary: Growth inhibition of mouse mock transfected BA/F3 cells assessed as decrease in cell viability after 3 days by luminescence based CellTiter-Glo assay
# Design: species or system BaF3

**Query** Look at this compound and give its reported GI50 at 72 h. Cc1cccc(Nc2nc(N[C@@H]3CCCC[C@@H]3N)c(C#N)c3cn[nH]c(=O)c23)c1
**Result** 220 nM

**Query** Look at this compound and give its reported GI50 at 72 h. Cc1cccc(Nc2nc(NC3CCCCC3N)cc3cn[nH]c(=O)c23)c1 (racemic)
**Result** 1500 nM

**Query** Look at this compound and give its reported GI50 at 72 h. N#Cc1cc2c(N)nn(Cc3ccccc3)c2nc1NC1CCCCC1N (racemic)
**Result** > 5000 nM

**Query** Look at this compound and give its reported GI50 at 72 h. Cc1cccc(Nc2nc(NC3CCCCC3N)cc3c2C(=O)NCC3)c1 (racemic)
**Result** 4300 nM

**Query** Look at this compound and give its reported GI50 at 72 h. Cc1cccc(Nc2nc(NC3CCCCC3N)c(Cl)c3cn[nH]c(=O)c23)c1 (racemic)
**Result** 1500 nM

**Query** Look at this compound and give its reported GI50 at 72 h. Cc1cccc(Nc2nc(NC3CCCCC3N)cc3cc[nH]c(=O)c23)c1 (racemic)
**Result** 1920 nM
